- measurement description: Pharmacokinetic study in plasma and brain
- Type: in vivo, male C57BL/6 mice
- conditions: male, C57BL/6, mouse, iv, 1 mg/kg, 30 min, brain; read-out: Brain C30

chem smiles: CN(CCCNC(=O)c1ccc(Cl)cc1)Cc1ccccc1
concentration at 30 min [µg/mL]: 0.234

* * *

- measurement description: Pharmacokinetic study in plasma and brain
- Format: in vivo, male C57BL/6 mice
- conditions: male, C57BL/6, mouse, plasma, iv, 1 mg/kg, i.v., mouse plasma, read-out: Plasma tmax

compound: CN(CCCNC(=O)c1ccc(Cl)cc1)Cc1ccccc1 [compound 7i]
Tmax: 0 h

* * *

- measurement description: Microsomal stability in human liver microsomes
- Type: in vitro ADME
- conditions: human, liver microsomes, hLM
microsomal CLint at 10 µM values by entry

chem smiles: O=C(NCCCNCc1ccccc1)c1ccc(Cl)cc1
microsomal CLint at 10 µM: < 115 µL/min/mg

chem smiles: CN(CCCNC(=O)c1ccc(Cl)cc1)Cc1ccccc1
microsomal CLint at 10 µM: < 115 µL/min/mg
